Entry source: ChEMBL document CHEMBL3627646

This section presents compounds with their documented MIC values.
# Test system: Clostridium sporogenes
# Assay Summary: Antibacterial activity against Clostridium sporogenes ATCC 19404 after 24 hrs by microbroth double dilution method
# Assay type: functional
# Measurement Parameters: ATCC 19404, 24 h
Respond numerically; units are µM and should not be typed.

A selection of reference data follows.
| Compound | MIC / µM |
| --- | --- |
| NCC[C@H](O)C(=O)N[C@@H]1C[C@H](N)[C@@H](O[C@H]2O[C@H](CN)[C@@H](O)[C@H](O)[C@H]2O)[C@H](O)[C@H]1O[C@H]1O[C@H](CO)[C@@H](O)[C@H](N)[C@H]1O [AMIKACIN] | 25.6 |
| CC1=CCC[C@H]2[C@](C)(CC3=CC(=O)C=C(N[C@@H](Cc4c[nH]c5ccccc45)C(=O)O)C3=O)[C@@H](C)CC[C@]12C | 37.9 |
| CC(C)(C)C1=CC(=O)C(N2CCC[C@H]2C(=O)O)=CC1=O | 2260 |

Now turn to the next compound.
## Task Any idea what MIC was measured for CC(C)C[C@H](NC1=CC(=O)C=C(C(C)(C)C)C1=O)C(=O)O ?
## Result 2130

* * *

This section presents compounds with their documented MIC values.
# Test system: Candida albicans
# Assay Summary: Antifungal activity against Candida albicans ATCC 10231 after 24 hrs by microbroth double dilution method
# Type: functional
# Measurement Parameters: ATCC 10231, 24 h

A selection of reference data follows.
| Mol | MIC |
| --- | --- |
| CC(C)(C)C1=CC(=O)C(N2CCC[C@H]2C(=O)O)=CC1=O | 567 µM |
| CC1=CCC[C@H]2[C@](C)(CC3=CC(=O)C=C(N[C@@H](CC(C)C)C(=O)O)C3=O)[C@@H](C)CC[C@]12C | < 5.54 µM |
| CSCC[C@H](NC1=CC(=O)C=C(C(C)(C)C)C1=O)C(=O)O | 505 µM |
| CC1=CCC[C@H]2[C@](C)(CC3=CC(=O)C=C(N[C@@H](C(=O)O)C(C)C)C3=O)[C@@H](C)CC[C@]12C | < 2.88 µM |

Now turn to the next compound.
## Task Any idea what MIC was measured for CC1=CCC[C@H]2[C@](C)(CC3=CC(=O)C=C(NCC(=O)O)C3=O)[C@@H](C)CC[C@]12C ?
## Result 12.6 µM

* * *

# Test system: Kocuria rhizophila
# Assay Summary: Antibacterial activity against Kocuria rhizophila ATCC 9341 after 24 hrs by microbroth double dilution method
# Type: functional
# Measurement Parameters: ATCC 9341, 24 h
# class assignment by measured MIC: low-valued = under 700 µM, mid-valued = from 700 µM up to 2000 µM, high-valued = 2000 µM and over

Example results:
| Molecule | Class |
| --- | --- |
| CC1=CCC[C@H]2[C@](C)(CC3=CC(=O)C=CC3=O)[C@@H](C)CC[C@]12C [AVARONE] | low-valued |
| CC(C)(C)C1=CC(=O)C=C(NCCC(=O)O)C1=O | high-valued |
| C[C@H](NC1=CC(=O)C=C(C(C)(C)C)C1=O)C(=O)O | high-valued |

## Task Hi, small favor: classify CC(C)(C)C1=CC(=O)C=C(N[C@@H](Cc2ccccc2)C(=O)O)C1=O by its MIC when you get a moment.
## Result mid-valued

## Task Do the same for CSCC[C@H](NC1=CC(=O)C=C(C[C@]2(C)[C@@H](C)CC[C@]3(C)C(C)=CCC[C@@H]23)C1=O)C(=O)O please
## Result mid-valued

## Task Do the same for CC1=CCC[C@H]2[C@](C)(CC3=CC(=O)C=C(NCCC(=O)O)C3=O)[C@@H](C)CC[C@]12C please
## Result low-valued

## Task Do the same for CC(C)C[C@H](NC1=CC(=O)C=C(C(C)(C)C)C1=O)C(=O)O please
## Result high-valued

## Task Do the same for CC(C)(C)C1=CC(=O)C=C(NCC(=O)O)C1=O please
## Result high-valued

## Task Do the same for CC(C)(C)C1=CC(=O)C=CC1=O please
## Result low-valued

## Task Do the same for CC1=CCC[C@H]2[C@](C)(CC3=CC(=O)C(N4CCC[C@H]4C(=O)O)=CC3=O)[C@@H](C)CC[C@]12C please
## Result mid-valued

## Task Do the same for CC1=CCC[C@H]2[C@](C)(CC3=CC(=O)C=C(NCC(=O)O)C3=O)[C@@H](C)CC[C@]12C please
## Result mid-valued

## Task Do the same for CC1=CCC[C@H]2[C@](C)(CC3=CC(=O)C=C(N[C@@H](C)C(=O)O)C3=O)[C@@H](C)CC[C@]12C please
## Result mid-valued
